These measurements were taken from the supplement of paper PMC10065799.

- Test system: c-Src;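 also: 11-residue human phosphosite peptides and single-mutation variants displayed on the E. coli surface, counted by deep sequencing, each peptide's frequency after selection divided by its frequency in the unselected input library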;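 also: frequency after pTyr selection over input frequency; kinase dosed for 20-30% of maximal phosphorylation in three min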
- test method notes: phosphorylation enrichment, bacterial display (enrichment ratio); higher = better substrate or ligand; peptides without Tyr show the background
endpoint: phosphorylation enrichment
No unit in the answer, only the number.

Some sequences with known phosphorylation enrichment results, for comparison:
{"columns": ["sequence string", "phosphorylation enrichment"],
 "data": [
  ["VHLFAYDWISI [BEST1_Y227_G222V_YF]", 0.651],
  ["KLMTEYKRRKQ [ARFGEF3_Y2029_K2031R]", 0.526],
  ["DRTGHYLCNAC [GATA1_Y223]", 0.469],
  ["VQQVIYATGAL [MYH7_Y422]", 5.97],
  ["CFTRKYTLPPG [HSPB1_Y142]", 0.452]
]}

Which phosphorylation enrichment value is on record for TRSCKYLLLSM [NF1_Y491_Y489C] ?
0.39

Given the entry LDPDSYNVFEN [FOXC1_Y159_M161V] , report its measured phosphorylation enrichment.
0.915

Form field: reported phosphorylation enrichment of KVWGIYDCQQP [CYP3A7_Y75]
4.49

So what's the measured phosphorylation enrichment for this one? VLPIDYFFPPQ [AR_Y552_YF]
0.522

Recorded phosphorylation enrichment of VVQGIYGFHHH [UFSP2_Y285_Y290H_YF] , please.
9.09
